Each recorded value in this set is attributed to PubChem BioAssay AID1063.

test: Leishmania major promastigote growth inhibition, primary screen (AID 1063); settings: Leishmania major promastigotes, resazurin fluorescence viability; at 10 µM;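 further: promastigotes grown with compound for 44 hours at 28 °C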
Out of some 200,000 compounds screened, about 18,000 (9%) were called active. No stated cut-off is given here; in the data, active means inhibition above about 50%; inactive means the rest. The sample holds actives, similar compounds and a random draw of the others, so the mix is not that of the screen.
Just give me one of these, please: 1 = active, 0 = inactive

Consider the worked cases shown below.
{"molecule": "Cc1cc(C)cc(C(=O)NC2C(=O)N3C(C(=O)O)=C(CSc4nnc(C)s4)CSC23)c1 (centres undefined)", "label value": 0}
{"molecule": "Cc1ccc(NC(=O)C(=O)NCc2ccco2)c(C)c1", "label value": 0}
{"molecule": "O=C(/C=C/c1ccc(Cl)c([N+](=O)[O-])c1)c1cccnc1", "label value": 1}
{"molecule": "c1ccc(Nc2nc(N3CCOCC3)c3ccccc3n2)cc1", "label value": 1}
{"molecule": "CC1(C)CCCC2=C1CC1C(=O)N(c3ccccc3)C(=O)C1C2 (centres undefined)", "label value": 0}

Recorded call for CC1CCCN(CC(O)COCc2ccccc2)C1 (centres undefined) ?
0

Record request — test call for "COc1ccc(C)cc1NC(=O)CSc1nnc(CC(=O)Nc2ccccc2F)n1C"
0

How was CN1CCN(CC(O)COCc2ccc3c(c2)OCO3)CC1 (centres undefined) classified in this test?
0

Query: recorded result category for O=C1CCCC2=C1C(c1cccs1)CC(=O)N2c1ccc(F)cc1 (centres undefined) in this test
0

What did this assay record as the result for "O=S(=O)(Nc1ccccn1)c1cccc(S(=O)(=O)c2ccc(Cl)cc2)c1" ?
0
